# System: rice blast fungus (Pyricularia grisea)
# Format: in vivo
# test_parameters: flowable diluted to 100 ppm, 10 mL per pot foliage spray on paddy rice; inoculated day after; 7 days after inoculation
measured_endpoint: evaluation value of control effect (from control value, number of lesions)

Requested field: evaluation value of control effect (from control value, number of lesions). Item: Cc1nnsc1C(=O)N(C(=O)c1cn(C)nc1C(F)F)c1ccsc1C(C)CC(C)C (centres unmarked) 4

Subsequent entry: Cc1nn(C)c(Cl)c1C(=O)N(C(=O)c1snc(Cl)c1Cl)c1cccc2c1C(C)OC2(C)C (centres unmarked) 4

And what about the compound CC1OC(C)(C)c2cccc(N(C(=O)c3cn(C)nc3C(F)F)C(=O)c3scnc3C(F)F)c21 (centres unmarked) ? 4

Further, for CC1OC(C)(C)c2cccc(N(C(=O)c3cn(C)nc3C(F)F)C(=O)c3snnc3C(F)F)c21 (centres unmarked) ? 4

Subsequent entry: CC(C)CC(C)c1ccccc1N(C(=O)c1cn(C)nc1C(F)F)C(=O)c1snnc1C(F)F (centres unmarked) 4

Same thing, different compound: Cc1nc(C(F)F)c(C(=O)N(C(=O)c2snnc2C)c2cccc3c2C(C)CC3(C)C)s1 (centres unmarked) 4

One more compound: Cc1nc(C(F)F)c(C(=O)N(C(=O)c2sc(C)nc2C(F)(F)F)c2ccccc2C(C)CC(C)C)s1 (centres unmarked) 4

Further, for CC(C)CC(C)c1ccccc1N(C(=O)c1cc(Cl)c(Cl)s1)C(=O)c1cccnc1C(F)F (centres unmarked) ? 4

###

Assignment: determine reported melting point for the given molecules.

Return reported melting point; argument: CC1CC(C)(C)c2cccc(N(C(=O)c3cn(C)nc3C(F)F)C(=O)c3snc(Cl)c3Cl)c21 (stereo not shown) 154.3 to 155.6 °C

Next record, please: Cc1nn(C)c(Cl)c1C(=O)N(C(=O)c1snc(Cl)c1Cl)c1cccc2c1C(C)OC2(C)C (stereo not shown) 165.5 to 170.3 °C

Try this molecule too: O=C(c1nccnc1C(F)(F)F)N(c1ccccc1-c1ccc(F)c(F)c1)c1snc(Cl)c1Cl 136.1 to 139.2 °C

Now consider CC(C)CC(C)c1ccccc1N(C(=O)c1cccnc1C(F)F)C(=O)c1snc(Cl)c1Cl (stereo not shown) and answer again. 111 to 115.6 °C

###

Exercise: state measured evaluation value of control effect (from control value, lesion area percentage) for each of the compounds provided.
# System: barley powdery mildew fungus (Erysiphe graminis)
# test_name: Test Example 2: control effect against barley powdery mildew by foliage application
# Type: in vivo
# test_parameters: wettable powder diluted to 100 ppm, 10 mL per pot foliage spray on barley; inoculated day after; 7 days after inoculation

Quick one: evaluation value of control effect (from control value, lesion area percentage) for Cc1nc(C(F)F)c(C(=O)N(C(=O)c2cc(Cl)no2)c2cccc3c2C(C)OC3(C)C)s1 (centres unmarked) [26-91] ? 4

Now the same for Cc1nnsc1C(=O)N(C(=O)c1cn(C)nc1C(F)F)c1ccccc1C(C)CC(C)C (centres unmarked) [1-146] 4

Proceed to CC(C)CC(C)c1sccc1N(C(=O)c1cn(C)nc1C(F)(F)F)C(=O)c1snc(Cl)c1Cl (centres unmarked) [5-1] 5

Then this compound: CC(C)CC(C)c1ccccc1N(C(=O)c1cn(C)nc1C(F)F)C(=O)c1scnc1C(F)F (centres unmarked) [1-341] 4

Next up: Cc1nc(C(F)(F)F)c(C(=O)N(C(=O)c2snnc2C)c2c(Br)cc(OC(F)(F)F)cc2Br)s1 [7-280] 4

Also CC1CC(C)(C)c2cccc(N(C(=O)c3cccnc3C(F)F)C(=O)c3snc(Cl)c3Cl)c21 (centres unmarked) [27-3] ? 5

Please give the result for Cc1nc(C(F)F)c(C(=O)N(C(=O)c2cn(C)nc2C(F)F)c2ccccc2CCC(C)C)s1 [1-313] too. 4

Here is the next compound: CC(C)CC(C)c1ccccc1N(C(=O)c1cccnc1Cl)C(=O)c1snc(Cl)c1Cl (centres unmarked) [13-53] 4
